Recorded pKd values for a group of binders are listed next.
assayedSystem: human α form prion (human, UniProt P04156 90-230)
pKd: −log10 of the molar value.
experimentalReadout: pKd

- binder: "huPrP-18 (scFv, V domains shown) VH: QVQLVQSGAEVKKPGASVKVSCKASGYTFTSYPIHWVRQAPGQRLEWMGWLNPGTGVTKYSQNFQGRVTLTSDTSANTAYLELSSLRSEDTALYYCTRDPLDSRKNWFDPWGQGTLVTVSS VL: SYVLTQPPSASGTPGQRVTISCSGSNSNIGTNFVYWYQQLPGTAPKLLIYRNNQRPSGVPDRFSGSKSGTSASLAISGLRSEDEADYYCAAWDDSLSGRVFGGGTQLTVLG"
  recordedNumber: 7.70
- binder: "boPrP-2 (scFv, V domains shown) VH: QVQLVQSGGGLVQPGRSLRLSCAASGFTFDDYAMHWVRQAPGKGLEWVSGISWNSGSIGYADSVKGRFTISRDNAKNSLYLQMNSLRAEDTALYYCAKGGGSYYYFDYWGQGTLVTVSS VL: QSVLTQPPSVSGAPGQRVSISCTGNRSNIGAGYDVHWYQQVPGMAPKLLIYGNTKRPSGVPDRFSGSKSGTSASLAITGLQAEDEADYYCQSFDNTLSDSRWVFGGGTKLTVLG"
  recordedNumber: 6.96
- binder: "boPrP-15 (scFv) chain 1: QVQLVQSGAEVKKPGASVKVSCKASGYTFTSYGISWVRQAPGQGLEWMGWISAYNGNTNYAQKLQGRVTMTTDTSTSTAYMELRSLRSDDTAVYYCARYGGRIAAASYNWFDPWGQGTLAICPDSACLRVWVSWTVDHLVTVSS chain 2: QSALTQPASVSGSPGQSITISCTGTSSDVGGYNYVSWYQQHPGKAPRLMIYDVSNRPSGVSNRFSGSKSGNTASLTISGLQSEDEADYYCSSYTSSSTLVFGTGTKLTVLG"
  recordedNumber: 8.11
- binder: "boPrP-20 (scFv, V domains shown) VH: QVQLVQSGGGLVQPGRSLRLSCAASGFTFDDYAMHWVRQAPGKGLEWVSGISWNSGSIGYADSVKGRFTISRDNAKNSLYLQMNSLRAEDTALYYCAKQGDEAAAGTGFDYWGQGTLVTVSS VL: QSVLTQPPSASAAPGQGVTISCSGSSSNIGTNTVAWYQHLPETAPKLLIYHDSQRPSRVPGRVSGSKSGTSASLAISRLQSDDEADYYCATWDDSLNGWVFGGGTKLTVLG"
  recordedNumber: 7.44

Measured values drawn from patent WO2006046344A1 for this set.
